# Tested on: SW-620
# test summary: NCI tumour cell line growth inhibition, 48 h
Calls of active or inactive are those of the source. Cut-off read from the data, not from the text of the source: active = GI50 up to about 1.1 µM and inactive = higher.
The reply should name one outcome from active, inactive

Would you please look over these solved cases?
INSERT INTO assay_data (compound, class_label) VALUES
  ('NS(=O)(=O)c1ccc(/C=C/c2ccc(F)cc2)cc1', 'inactive'),
  ('CCCCc1ccc(Nc2nc(N)c3ncn(COCCO)c3n2)cc1', 'inactive'),
  ('COc1cc2c(cc1OC)-c1[nH]c3ccc(C#N)cc3c1CC(=O)N2', 'active'),
  ('Cc1c[nH]c(C(=O)O)c1-c1ccc2c(-c3ccccc3)nc3ccccc3n12', 'inactive'),
  ('O=c1[nH]cnc2c1sc1nc3ccccc3n12', 'inactive');

Turning now to a further molecule:
Hi, do you know how `O=C1c2ccccc2CN1c1ccc(O)cc1` came out in this test?
inactive

====

# System: OVCAR-4
# test summary: NCI tumour cell line growth inhibition, 48 h
Calls of active or inactive are those of the source. Cut-off read from the data, not from the text of the source: active = GI50 up to about 1.1 µM and inactive = higher.
The following compounds are shown together with reported GI50 values.

Solved cases (5 shown):
INSERT INTO assay_data (compound, measured_value) VALUES
  ('O=C(c1c(F)c(F)c(F)c(F)c1F)n1c(O)nc2ccccc21', '13.3 µM (inactive)'),
  ('C=CCNC(NCC=C)=C(C(Cl)=C(Cl)Cl)[N+](=O)[O-]', '31.8 µM (inactive)'),
  ('COc1ccc(N2C(N)=C(C#N)C(C#N)(C#N)C2c2cccc([N+](=O)[O-])c2)cc1 (stereo not given)', '17.7 µM (inactive)'),
  ('CC(C)=CC(=O)Cc1nc2ccccc2[nH]c1=O', '52.2 µM (inactive)'),
  ('CCOC(=O)CN(c1ccccc1)c1nc(=[N+](C)C)ss1', '17.7 µM (inactive)');

GET /values?readout=GI50&item= O=c1cc(CO)oc2c3c(cc(O)c12)OCC(COC1OC(CO)C(O)C(O)C1O)=CC3 (stereo not given)
> 100 µM (inactive)

For the compound `COC(=O)[C@H]1N[C@@H](C(=O)OC)C23CCC[C@H]2CC[C@]1(C(OC)OC)C3` , what GI50 is on record?
> 100 µM (inactive)

Tell me the measured GI50 of NC(=S)N/N=C1\C(=O)N(CCc2ccccc2)C(=O)C1C(=O)NCCc1ccccc1 (stereo not given) , please.
> 100 µM (inactive)

I'd like to know its GI50. The compound in question is `COc1ccc(CCNC(=O)CCc2ccccc2CO)cc1OC`
> 100 µM (inactive)

GI50 lookup needed for `CC(C)(Cc1ccccc1)N1C(=O)N1C(C)(C)Cc1ccccc1` , thanks.
34.7 µM (inactive)

====

# Test system: MOLT-4
# test summary: NCI tumour cell line growth inhibition, 48 h
Activity calls are given as the source filed them. No stated cut-off is given here; in the data, active = GI50 up to about 1.1 µM and inactive = higher.
Hi there, use one of these labels in your reply, thanks! label 1 = active, label 0 = inactive

Call for entry CC1(C)C2CCC(CN)(C2)C1N (centres undefined) :
label 0

What was the test verdict on `Cc1cc2c(O)c(c1)CN(Cc1ccccc1)Cc1cc(C)cc(c1O)CN(Cc1ccccc1)Cc1cc(C)cc(c1O)CN(Cc1ccccc1)C2` ?
label 0

What did the test return for N#CCCC(CC#N)N1CCN(CCO)CC1 (centres undefined) ?
label 0

# lookup: test call for `Cc1cc2c(cn1)C(=O)OCC2`
label 0

====

# Tested on: SN12C
# test summary: NCI tumour cell line growth inhibition, 48 h
Calls of active or inactive are those of the source. Rule as the data show it: active = GI50 up to about 1.1 µM and inactive = higher.
measurement kind: GI50

Solved entries (count: 5):
INSERT INTO measurements (molecule, target_or_system, measured_value) VALUES
  ('CCCCC(/C=C\COC1CCCCO1)=C/C(=O)OCC (centres undefined)', 'SN12C', '57.4 µM (inactive)'),
  ('OCCNCCOc1ccc(/C(=C(/Cl)c2ccccc2)c2ccccc2)cc1', 'SN12C', '5.3 µM (inactive)'),
  ('CC(=O)NC1C(OCc2ccccc2)OC(CO)C(O)C1OC(C)C(=O)N[C@@H](C)C(=O)N[C@H](CCC(=O)NCCNCCNc1c2ccccc2nc2cccc([N+](=O)[O-])c12)C(N)=O (some centres undefined)', 'SN12C', '0.104 µM (active)'),
  ('N#CC(C#N)=C1/C(=C/C=C/C=C/C=C/c2ccc(N3CCCCC3)s2)S(=O)(=O)c2ccccc21', 'SN12C', '> 100 µM (inactive)'),
  ('COc1ccc2c(c1)[n+]([O-])c(/C(C)=N/NC(=O)CC#N)c[n+]2[O-]', 'SN12C', '> 100 µM (inactive)');

Entry `CCN(CC)c1nc(NC2CCCCC2)c2nc(N(CC)CC)nc(NC3CCCCC3)c2n1` , system SN12C: what GI50 was measured?
> 100 µM (inactive)

Param readout= GI50; system= SN12C; entry= CC1(C)C2CCC(CN)(C2)C1N (centres undefined) ; returns value.
> 100 µM (inactive)

Param readout= GI50; system= SN12C; entry= `C=CCN(c1cc(O)c2c(c(C)cn2S(=O)(=O)c2ccccc2)c1[N+](=O)[O-])S(C)(=O)=O` ; returns value.
78.9 µM (inactive)

Query the reported GI50 for SN12C; item: `O=C(/C=C/c1ccc2c(c1)OCO2)CC(=O)/C=C/c1ccc2c(c1)OCO2`
> 100 µM (inactive)

====

The entries below are paired with their reported GI50.
# Test system: MCF7
# test summary: NCI tumour cell line growth inhibition, 48 h
Activity calls are given as the source filed them. Rule as the data show it: active = GI50 up to about 1.1 µM and inactive = higher.

A selection of reference data follows.
INSERT INTO results (compound, measured_value) VALUES
  ('COc1cccc(/C=N/n2c(-c3ccccc3)n[nH]c2=O)c1', '75.5 µM (inactive)'),
  ('CCCCC(/C=C\COC1CCCCO1)=C/C(=O)OCC (stereo not drawn)', '46.9 µM (inactive)');

Attention now turns to another entry.
Find the recorded GI50 belonging to C=C1C(O)C[C@H](OC(C)=O)[C@]2(C)C1C(OC(C)=O)[C@]1(C(C)(C)O)CC(O)C(C)=C1[C@@H](OC(=O)c1ccccc1)C2OC(C)=O (stereo partly drawn) and report it.
> 10 µM (inactive)

====

GI50 reference
# System: OVCAR-5
# test summary: NCI tumour cell line growth inhibition, 48 h
Active and inactive are the calls of the source. Rule as the data show it: active = GI50 up to about 1.1 µM and inactive = higher.

INSERT INTO results (compound, target_or_system, measurement_kind, measured_value) VALUES
  ('Cc1ccccc1/N=N/c1ccc(N/N=C2/CCCNC2=O)c(C)c1', 'OVCAR-5', 'GI50', '> 100 µM (inactive)');

Dear colleague, I am looking for the recorded GI50 of the following compound: COc1ccc(CC(O)CN2CCOCC2)cc1 (stereo not given)
> 100 µM (inactive)

Can you look up the measured GI50 of `COC(=O)[C@H]1C=C[C@@H](C)n2c(=O)c3cc4ccccc4cc3c(=O)n21` for me?
> 100 µM (inactive)

For COC12c3ccccc3-c3ccccc3C1[C@@H](C(=O)O)[C@H]2C(=O)O (stereo not given in full) , what is its reported GI50?
> 10 µM (inactive)

Using the record for `COc1cc2c(cc1C)NC(=O)/C2=C/c1c(Cl)[nH]c2cc(C)c(OC)cc12` , report its GI50.
7.78 µM (inactive)

====

# Test system: HT-29
# test summary: NCI tumour cell line growth inhibition, 48 h
The source made the active and inactive calls. No stated cut-off is given here; in the data, active = GI50 up to about 1.1 µM and inactive = higher.
measurement kind: GI50

INSERT INTO results (compound, measurement_kind, measured_value) VALUES
  ('O=C(O)c1ccc(C(=O)c2ccccc2)c(C(=O)O)c1', 'GI50', '> 100 µM (inactive)');

Using the record for COC(=O)C(NC(=O)C(CC(=O)OC(C)(C)C)NC(=O)OC(C)(C)C)C(O)c1ccccc1 (centres undefined) , report its GI50.
> 100 µM (inactive)

Request the reported GI50 associated with `COc1cc2c(cc1C)NC(=O)/C2=C/c1c(Cl)[nH]c2cc(C)c(OC)cc12`
4.29 µM (inactive)

Which value of GI50 has been reported for COc1cc2c(cc1OC)C1Cc3ccc(OC)c(OC)c3C[N+]1([O-])CC2 (centres undefined) in the records?
> 100 µM (inactive)

For `N#CC(C#N)=C1CCCCc2ccc([N+](=O)[O-])cc21` , what is its reported GI50?
78.9 µM (inactive)

Report GI50 for CCC(NC(C)c1ccccc1)C(O)c1ccc(OCc2ccccc2)c(OCc2ccccc2)c1 (centres undefined) please.
3.31 µM (inactive)

Looking for the measured GI50 of `COC1=NCc2ccccc2-c2ccccc21` , can you help?
> 100 µM (inactive)

Quick one: GI50 of `Cc1cc(-c2nc3c(O)cccc3s2)ccc1N` ?
21.8 µM (inactive)

Using the record for `COC(=O)[C@H]1N[C@@H](C(=O)OC)C23CCC[C@H]2CC[C@]1(C(OC)OC)C3` , report its GI50.
> 100 µM (inactive)

Returns the measured GI50 for the input compound. Input: `Cn1c2ccccc2n2c3ccccc3c(=O)c(C#N)c12`
4.53 µM (inactive)

# query: GI50 of entry `O=C1OCC2=Nc3cccc4cccc(c34)N12`
> 100 µM (inactive)

Item `O=c1[nH]cnc2c1sc1nc3ccccc3n12` has what recorded GI50?
> 100 µM (inactive)

Name the reported GI50 value associated with the compound `COC(=O)/C=C/c1ccc(OP(=O)(O)O)c(OC)c1`
> 100 µM (inactive)

Suppose we examine the compound CC12C(=CC(=O)CC1SCCS(=O)(=O)O)C(C#N)=C(N)N2c1ccc(Cl)c(Cl)c1 (centres undefined) ; what GI50 value has been reported?
> 100 µM (inactive)

What measured GI50 goes with `COc1ccc2c(c1)[n+]([O-])c(C#N)c(N1CCN(c3ccc([N+](=O)[O-])cc3)CC1)[n+]2[O-]` ?
> 22.4 µM (inactive)

Report GI50 for `O=C1C([P+](c2ccccc2)(c2ccccc2)c2ccccc2)=C([O-])C(=Cc2ccc(Cl)c(Cl)c2)C([O-])=C1[P+](c1ccccc1)(c1ccccc1)c1ccccc1` please.
1.91 µM (inactive)

# get_value(readout='GI50', item= `c1ccc2c(c1)[nH]c1c[nH]c3c4cccnc4nc-3c12` )
19.3 µM (inactive)

Which value of GI50 has been reported for `O=c1[nH]nc(-c2ccccc2)c2[nH]c(-c3ccccc3)cc12` in the records?
12.2 µM (inactive)

Entry CC(=O)O[C@H]1C(=O)[C@@]2(C)C([C@H](OC(=O)c3ccccc3)[C@]3(O)C[C@H](OC(=O)[C@H](O)[C@H](NC(=O)c4ccccc4)c4ccc(Cl)cc4)C(C)=C1C3(C)C)C1(OC(C)=O)CO[C@@H]1C[C@@H]2O (some centres undefined) has what GI50?
0.000106 µM (active)
